Consider the following molecules and their measured IC50 readings.
Tested on: Rat fibroblasts (CREF)
Assay: Peg3 promoter luciferase inhibitors, potency, dose response, cell-based, HeLa, CREF/GAPDH counter-screen panel (AID 624167)
Details: CREF/GAPDH counter-screens, run 2, dose range 1, individual replicate IC50 per panel
MEASUREMENT LABEL: IC50

>  <MOLECULE>
CCC(c1nnnn1-c1ccc2c(c1)OCCO2)N1CCC(n2c(=O)[nH]c3ccccc32)CC1 (stereo not drawn)

>  <MEASUREMENT LABEL>
IC50

>  <REPORTED>
> 100 µM

$$$$
>  <MOLECULE>
OCCCNc1nccc(-c2cc(Nc3cccc(Cl)c3)ncn2)n1

>  <MEASUREMENT LABEL>
IC50

>  <REPORTED>
> 100 µM

$$$$
>  <MOLECULE>
C(=N\Nc1ccc2ccccc2n1)/c1ccc2c(c1)OCCO2

>  <MEASUREMENT LABEL>
IC50

>  <REPORTED>
> 100 µM

$$$$

###

Recorded IC50 for the following molecules
Tested on: Rat fibroblasts (CREF)
Experiment: Peg3 promoter luciferase inhibitors, potency, dose response, cell-based, HeLa, CREF/GAPDH counter-screen panel (AID 624167)
Conditions: CREF/GAPDH counter-screens, run 1, dose range 1, individual replicate IC50 per panel
MEASUREMENT LABEL: IC50

>  <MOLECULE>
CCC(=O)NC(c1ccc(C)cc1)c1ccc2cccnc2c1O (stereo unspecified)

>  <MEASUREMENT LABEL>
IC50

>  <REPORTED>
> 100 µM

$$$$
>  <MOLECULE>
CN1OC[C@@H]2CN(S(=O)(=O)c3cccc(C(F)(F)F)c3)[C@H](c3ccc(-c4cc5ccccc5o4)cc3)C[C@@H]21

>  <MEASUREMENT LABEL>
IC50

>  <REPORTED>
> 100 µM

$$$$
>  <MOLECULE>
CC(=O)NC(c1ccc(N(C)C)cc1)c1cc(Cl)c2cccnc2c1O (stereo unspecified)

>  <MEASUREMENT LABEL>
IC50

>  <REPORTED>
> 100 µM

$$$$
>  <MOLECULE>
O=C(CNC(=O)C(c1ccccc1)c1ccccc1)N/N=C/c1ccc(O)cc1O

>  <MEASUREMENT LABEL>
IC50

>  <REPORTED>
> 100 µM

$$$$
>  <MOLECULE>
COc1cccc(OC)c1C(=O)Nc1cc(C)nn1-c1nc2ccccc2[nH]1

>  <MEASUREMENT LABEL>
IC50

>  <REPORTED>
> 100 µM

$$$$
>  <MOLECULE>
O=c1cnnc(N/N=C/c2ccccn2)[nH]1

>  <MEASUREMENT LABEL>
IC50

>  <REPORTED>
> 100 µM

$$$$

###

Molecular target: PEG-3 (UniProt Q6IN02)
Sequence (Q6IN02 whole entry, looked up): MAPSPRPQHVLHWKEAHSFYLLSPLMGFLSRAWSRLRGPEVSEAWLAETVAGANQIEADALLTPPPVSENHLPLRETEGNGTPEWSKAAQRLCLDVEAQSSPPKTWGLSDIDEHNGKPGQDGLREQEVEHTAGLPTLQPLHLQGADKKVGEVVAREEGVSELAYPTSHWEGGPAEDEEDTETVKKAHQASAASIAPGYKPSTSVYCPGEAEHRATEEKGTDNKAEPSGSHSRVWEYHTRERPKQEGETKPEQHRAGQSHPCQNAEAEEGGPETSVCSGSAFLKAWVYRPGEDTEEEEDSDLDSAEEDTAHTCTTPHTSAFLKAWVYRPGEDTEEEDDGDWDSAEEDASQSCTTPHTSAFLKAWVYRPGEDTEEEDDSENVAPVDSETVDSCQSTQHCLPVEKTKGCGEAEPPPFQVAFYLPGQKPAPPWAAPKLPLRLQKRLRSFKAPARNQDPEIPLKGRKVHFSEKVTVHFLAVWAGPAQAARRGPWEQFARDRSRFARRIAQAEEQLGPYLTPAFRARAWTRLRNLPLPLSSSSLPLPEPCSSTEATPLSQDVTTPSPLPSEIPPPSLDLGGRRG
Assay: Peg3 promoter luciferase inhibitors, potency, dose response, cell-based, HeLa, CREF/GAPDH counter-screen panel (AID 624167)
Details: HeLa PEG-Prom luciferase reporter, overnight, CREF/GAPDH counter-screens, mean of runs
Calls of active or inactive are those of the source.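 How the source made its calls: active means mean IC50 for reducing PEG3 promoter reporter signal at or below a set limit, with IC50 above the limit in both counter screens; inactive means the rest, including counter screen hits.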
Recorded IC50 by entry

>  <COMPOUND>
COc1ccccc1C1c2ccc3ccccc3c2Oc2ncn(CCCO)c(=N)c21 (centres undefined)

>  <IC50>
15.8 µM

$$$$
>  <COMPOUND>
O=C(CN1CCCC1)Nc1ccc(-c2nc3cc(NC(=O)CN4CCCC4)ccc3o2)cc1

>  <IC50>
> 100 µM (inactive)

$$$$
>  <COMPOUND>
Cc1cccc(/C=N/Nc2ccc3ccccc3n2)c1

>  <IC50>
4.18 µM

$$$$

Reference source: PubChem BioAssay AID624167
